Reference for the values: patent US6872827B2

Biological target: Somatostatin sst1 (Homo sapiens)
Construct: host or cells: CHO-K1
Sequence (P30872 whole entry): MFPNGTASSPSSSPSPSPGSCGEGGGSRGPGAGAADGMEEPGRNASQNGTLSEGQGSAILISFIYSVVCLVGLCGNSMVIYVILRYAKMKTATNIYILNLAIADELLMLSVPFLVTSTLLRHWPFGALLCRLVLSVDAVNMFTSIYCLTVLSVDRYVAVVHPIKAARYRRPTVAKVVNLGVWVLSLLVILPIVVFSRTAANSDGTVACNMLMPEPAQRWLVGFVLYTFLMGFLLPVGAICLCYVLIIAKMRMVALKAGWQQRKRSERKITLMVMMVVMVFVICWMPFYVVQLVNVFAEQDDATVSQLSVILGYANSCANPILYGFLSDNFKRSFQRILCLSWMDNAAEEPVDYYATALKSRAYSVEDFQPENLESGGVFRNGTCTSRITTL
Assay: Somatostatin sst1 radioligand binding assay
Conditions: Table 4; human; Conc 10 μM
VALUE_TYPE: inhibition at 10 µM

>>> test_value("CN1C(=O)N(Cc2c[nH]c3ccccc23)C2(CCN(CCCCN)c3cc(Oc4ccccc4)ccc32)C1=O (stereo not shown) [Compound B]")
"57%"
>>> test_value("CN1C(=O)N(CCc2c[nH]c3ccccc23)C(=O)C12CCN(CCCCN)c1cc(O)ccc12 (stereo not shown) [F]")
"87%"
>>> test_value("Cc1ccc(Oc2ccc3c(c2)N(CCCCN)CCC32C(=O)N(CCc3c[nH]c4ccccc34)C(=O)N2C)cc1C (stereo not shown) [I]")
"66%"
>>> test_value("Cc1ccc(Oc2ccc3c(c2)N(CCCCN)CCC32C(=O)N(C)C(=O)N2Cc2c[nH]c3ccccc23)cc1 (stereo not shown) [D]")
"84%"
>>> test_value("CN1C(=O)N(CCc2c[nH]c3ccccc23)C(=O)C12CCN(CCCCN)c1cc(Oc3ccc4c(c3)OCO4)ccc12 (stereo not shown) [J]")
"69%"
>>> test_value("Cc1ccc(Oc2ccc3c(c2)N(CCCCN)CCC32C(=O)N(CCc3c[nH]c4ccccc34)C(=O)N2C)cc1 (stereo not shown) [H]")
"66%"
>>> test_value("CN1C(=O)N(Cc2c[nH]c3ccccc23)C(=O)C12CCN(C(=O)CCCN)c1cc(Oc3ccccc3)ccc12 (stereo not shown) [Compound A]")
"54%"
